Origin of values: the DeepSol protein solubility set

Assay: soluble on expression in E. coli; label from the status in PepcDB or PDB records
measurementName: soluble on expression in E. coli

Use the examples below as a reference point.
MGSDKIHHHHHHVVNQAQKMNFLTHLHLADISKTHLAANVAGNYIQAPIAQAPVEFRQALWLNQEINTLCASHELTIELMEAFPAPLRSIAAELMAVSFDYYLAYYWEEYHHQPLNEFSHKAYDALENFAAQGIDQYHPEALIKLLPTIRSQDWLGSYATENGLQQALAQVAKPHPQAALFKDAHKVVNKMQIEIETTFRTFYPQLMAYSRIWSRKTPAEYLP    not soluble
MGSSHHHHHHSSGLVPRGSHMEEDGGIIRRIQTRGEGYAKPNEGAIVEVALEGYYKDKLFDQRELRFEIGEGENLDLPYGLERAIQRMEKGEHSIVYLKPSYAFGSVGKEKFQIPPNAELKYELHLKSFEKAKESWEMNSEEKLEQSTIVKERGTVYFKEGKYKQALLQYKKIVSWLEYESSFSNEEAQKAQALRLASHLNLAMCHLKLQAFSAAIESCNKALELDSNNEKGLSRRGEAHLAVNDFELARADFQKVLQLYPNNKAAKTQLAVCQQRIRRQLAREKKLYANMFERLAEEENKAKAEASSGDHPTDTEMKEEQKSNTAGSQSQVETEA    soluble
MGSDKIHHHHHHMSVGRIGFIGTGSITEAIVTGLATCADVPTEVWLSPRNAQIADRLAQAYPMVQVAGENQEVVDRCDVVCLAVRPQVAESVLQALRFSGRHHVISFIATYGLDKLRTLIAPAKTLVRAAPLPTVAEHLCNTLVFPADDIARSLFTQLGGAIEVGSEEAFDVLFSATATMGSYFALLHNQARWLEQHGSTYSEARDYLASLHFGLASVARKTQTRFDELSKEFTTAGGLNEQVLDALGAHRVFNAFDDAFDQVLHRIGGTVSQRNE    not soluble
MLNPNKWLDVKKMLPRLAQKQWYAKTRYGYARGGETVHFVQNVRRYYDILTWVTQPLEHHHHHH    not soluble

soluble on expression in E. coli reading for MGSDKIHHHHHHMKKIGLTTTVPIEVLLSAGYTPIDLNNIFVGSKDYSKYIDIAEKDGFPKSLCAWIKGIYGACISNDIKEIVGVHDGDCSNTKALTEVLSMKGIKVYPFSYPSSHNINDVKDELDAFMNLFHVTLNQVEKIRTRLNKLRELGIEIDKLTFEDNKATALENHIWQISFSDLNGDIDAFNSDLIKTIADIKKREASSSKLRLGYIGVPPMTPDIYEFVTNFDAKIVYNEVQREFAFPRSSKAKDIYEQYFDYTYPYDVYFRIDEISRQIEERHIDGIIHYTQAFCYRAVQDIVIKEKLRVPVINIEGDRLNHLDARTKLRLEAFLDMLLDSKEGIF : not soluble

Reported soluble on expression in E. coli ( MEAAHFFEGTEKLLEVWFSRQQPDANQGSGDLRTIPRSEWDILLKDVQCSIISVTKTDKQEAYVLSEASMFVSKRRFILKTCGTTLLLKALVPLLKLARDYSGFDSIQSFFYSRKNFMKPSHQGYPHRNFQEEIEFLNAIFPNGAAYCMGRMNSDCWYLYTLDFPESRVISQPDQTLEILMSELDPAVMDQFYMKDGVTAKDVTRESGIRDLIPGSVIDATMFNPCGYSMNGMKSDGTYWTIHITPEPEFSYVSFETNLSQTSYDDLIRKVVEVFKPGKFVTTLFVNQSSKCRTVLASPQKIEGFKRLDCQSAMFNDYNFVFTSFAKKQQQQQSHICRSQMVTSQQTSSVVRQT ) = soluble

====

Experiment: soluble on expression in E. coli; label from the status in PepcDB or PDB records
measurementName: soluble on expression in E. coli

MGSDKIHHHHHHLTQLAQCSTSSISQSSIYLPYRDGQLHLRQLLPSAPDFSKTPILMLHGAMSNGRVFYSQSGRGLGCFLAKAGFVVYVLDTAGRGLSLPKIDRDSTLGQGEVIREQLPLVQQTILDLHQKACQEQTAQYDRKAVAPSQVHWCAHSWGGVLMASSLARYPELQQSVRSLLTFGSKRTIRVKSFKKWLMVDVFWNRLAPGLAMGQGYLAADKLRIGMDNESRASLVQSIDWVQGDWIDHDDGFDYAKAAKRADWPPAWFISGLNDTVLGHPEDVADMVEECGFKRVKSTLLSKENGFKHDYGHADMLTHLDATSDHFPKISDWYLSFDLAVLNG    not soluble
MLSKVQCILNRRTMADVDVDVPSAAPVLDGAMDINTALQEVLKKSLIADGLVHGIHQACKALDKRQAVLCILAESFDEPNYKKLVTALCNEHQIPLIRVDSHKKLGEWSGLCKIDKEGKPRKVCGCSVVVIKDFGEETPALDVVKDHLRQNSLEHHHHHH    not soluble
SGSQAGSFRKASPQTPNIDENEKRIKRLEKLKRDLQNIKNERGILQGILAKYKDLNDRTNFETFMLEMQHNQMMTDLKRMSQDISEALYKCQHLTKENQLYCCRNCHLLIESNLIQHKVRMLWKENRQLLRKQIALEECNIKTKILCKEGSQKIKDEYSRQAAGKQIIVVPGSKEEAAMSNPCA    soluble
MSTKADMAIAFHDKGYNCAQAVACSFCQEFGVAEEEMFRIAEGFGLGMGMMEVCGALSGMMMIIGLENSVGEPEKGRLTKGDTYRKVKEYVKKFQEQNGSYLCRELKGVETGKVLRSCPDCIRDAVALTEEYLAAQKQN    not soluble

Quick note, soluble on expression in E. coli for MSLNETKQFIKRHLFSARWLVRNLQQRYSTIERIAEFLAVNQYEFFTQPDGQLKPLTMKTIADALELHESTIARTVSNKYINSPKGIFSLRSFFTTKYTSEEGEDLSAKTVKEAILEIISGENKLRPFSDEKISEFLKSKGITCARRTVAKYRQALDLGNTQQRKKFHQSEGHHHHHH landed at soluble

Just so you know, measured soluble on expression in E. coli for MLVNFIKNFIPHRFYSSKTEIPVVRLHGAIIDSSSSIARTLSLGRCANLLDKAFAYKKAPAVAVIINSPGGSPVQSRLIFKRIRDLAEEKKKQVLMFIEDIAASGGYMIACAGDEIFADPSSIVGSIGVVSASFGFPELLKKIGIERRVYTAGKNKVTLDPFQPEKKTDIEHLKSLQLEVHKTFIDLVKERRAEKLSNDPNIFTGMFWSGKKSVELGLIDGLNDVRSVIKERFGDDTKLRLIIPPKSLFGPKTPSGVTAHAVHTAIDSALMVAQERALWQYYGLLEHHHHHH came out at soluble

Recorded result, MAHHHHHHPPKRAALIQNLRDSYTETSSFAVIEEWAAGTLQEIEGIAKAAVEAHATIRNSTYGRAQAEKSPEQLLGVLQRYQDLCHNVYCQAETIRTVIAIRIPEHKEADNLGVAVQHAVLKVIDELEIKTLGSGEKSGSGGAPTPIGMYALREYLSARSTVEDKLLGSVDAESGKTKGGSQSPSLLLELRQIDADFMLKVELATTHLSTMVRAVINAYLLNWKKLIQPRGGHLDVLYR , soluble on expression in E. coli: soluble

MGSDKIHHHHHHIASQENCSNKEDLTNRAEDFQSDFVKTMDIIKEHHVAYGNSNARNMLEVREQILQEKGFDDIYVQKKHAENCTAIAELPRVLAKIDELKNTGDEKTVLEYVSRGLLAGNVFDWGAKEVVKMMNSESGLTFQTAIDHVENRPWLFDGFDSFYKKHKEYKSVLIFVDNSGFDYILGIIPFARELLRNGSRVIICANTSPALNDLTYREMVELAPELKNADSDLAKFIDSNQMMFVQTGQESPCMDARRVHQDLNETVKKFNTDLVVIEGMGRALHTNFNVQFKCDSLKAAVIKTQWLADRLGGKMFSVVFKHE has a reported soluble on expression in E. coli of not soluble

The value of soluble on expression in E. coli measured for the sequence RNRFTRRKIVYIHEGMNVPLLGYNAFGLIDRGTNLIQVRGSTGCNLSCIFCSVDEGPYSRTRNLDFVVDVDYLMKWFDWVAKEKGKGLEAHLDAQGEPLLYPYIVELVQELRSHPHVSVISMQSNGVLLDEKLVEELAEAGLDRVNLSIHSLDPEKAKMLMGMKNYDLNHVLEMAEALVNAGIDVLIAPVIIFGINDNEAEAFIEFARRIGAGKRWPALGFQNYVPYKFGRNPVIAKPVPFKEFYEWLRMLEEKTGMRPLVLKPHHFGMHPRPFIPLAFKR turned out to be not soluble

Lab note: measured soluble on expression in E. coli of MGSDKIHHHHHHLYVPLLIRQQYIRSGPDYRFSEPVSFLDIKQTFGFSHVRVGRWVTREESRIAANLVFDSLADLAFILKLPPLTLGLRQTLSLAFGHGGQKGVQAHYAPATRELALAKNAGAGALAHEFWHAFDHYIAPKAFNLSEGHFLCASDLWLADSPLIKHPLNLRLSEIFKVTLLSPDGKEPSDYVRRALALDKRYGTRYFSQPTEMMARAFEACIESYRDISNPYLVSGTSFSAMAKEGAYPDELHRQRIFTALLDYFEPLGIALAK was not soluble

The recorded soluble on expression in E. coli for MAHHHHHHMKPYVWPTSDEAPPPSGRRTFPRQFQVNHGTLNLFSPAVPESQQCNTRAAAGSFSITGQRGILHQRNHNKESTATREFPVNGLRRVSAPQRSETPHGIRHIRDAAGAQQHVQVVNITDAYKDPMQMGPRRTGVKCLPQKSESDDVSVALSFAGSRQQLSARVLAAPVGKPSRPSLYPIDYSDQERFAQAVRDHAQKRTRGLAEFYVQLVRDTVGSVTSSTPKPAIVPWSLDQEPTRRVLTLGRCRDQLVALTAMPISLSDLALLLWGAGNGEVANSDSLTSDCDKDASLPLNCRPVPFCDFAAAFGQNSSDVRLARMKV is not soluble
